ASSAY: Cytotoxicity against MDCK cells assessed as reduction in cell viability by MTS assay
Format: cell-based, Canis lupus familiaris
CONDITION_NOTES: dog
REPORTED_ENDPOINT: MCC

Per the records, this molecule ( Cc1cn(Cc2cn(C[C@H](OCc3ccccc3)[C@@H](O)P(=O)(OCc3ccccc3)OCc3ccccc3)nn2)c(=O)[nH]c1=O ) has MCC equal to > 100 µM

====

Tested on: Human alphaherpesvirus 3
ASSAY: Antiviral activity against Thymidine kinase-positive Varicella-zoster virus Oka infected in HEL assessed as reduction in virus plaque formation
Format: functional, organism-based
CONDITION_NOTES: Human alphaherpesvirus 3, strain Oka vaccine
Overview of recorded EC50 for various compounds
# number then unit; no other words

{"columns": ["COMPOUND_STRUCTURE_STRING", "EC50"],
 "data": [
  ["Cn1c(=O)c2c(nc(Cl)n2Cc2cn(C[C@H]3OC(C)(C)O[C@H]3[C@@H](O)P(=O)(OCc3ccccc3)OCc3ccccc3)nn2)n(C)c1=O", "55.7 µM"]
]}

Item O=c1cnn(Cc2cn(C[C@H](OCc3ccccc3)[C@@H](O)P(=O)(OCc3ccccc3)OCc3ccccc3)nn2)c(=O)[nH]1 was tested on Human alphaherpesvirus 3; the reported EC50 is 63.7 µM
